# assay.target: GDP-bound KRAS wild-type protein (Homo sapiens, UniProt P01116)
# Sequence (P01116 whole entry): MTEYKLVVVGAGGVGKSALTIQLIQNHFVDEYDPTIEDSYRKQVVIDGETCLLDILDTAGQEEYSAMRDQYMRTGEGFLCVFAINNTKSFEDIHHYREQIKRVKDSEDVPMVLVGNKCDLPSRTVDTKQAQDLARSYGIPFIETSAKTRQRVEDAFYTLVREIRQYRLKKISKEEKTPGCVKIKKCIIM
# protocol.text: Binding to KRAS by surface plasmon resonance (SPR), Single Cycle Kinetics
# particulars: SPR, Single Cycle Kinetics, 1:1 binding model; GDP-bound KRAS wild-type protein; read-out: KRAS KD
measured.parameter: pKd
Recall that pKd is obtained by taking minus log10 of the concentration measured in molar.

Worked examples, 4 compounds total:
CCO[C@@H]1C[C@H]2C(=O)NC3(CCC3)C(=O)N(C)[C@@H](C3CCCC3)C(=O)N(C)[C@H](C(=O)N3CCOCC3)CC(=O)N(C)[C@@H](CC(C)C)C(=O)N[C@@H]([C@@H](C)CC)C(=O)N3CC[C@H]3C(=O)N(C)[C@H]3CC[C@@H](C)CN(C3=O)[C@@H](Cc3ccc(C(F)(F)F)cc3)C(=O)N(C)CC(=O)N[C@@H](CCc3cc(F)c(C(F)(F)F)c(F)c3)C(=O)N2C1 [PP1373]; 9.46
CCO[C@@H]1C[C@H]2C(=O)NC3(CCC3)C(=O)N(C)[C@@H](C3CCCC3)C(=O)N(C)[C@H](C(=O)N(C)CCOC)CC(=O)N(C)[C@@H](C)C(=O)N[C@@H]([C@@H](C)CC)C(=O)N(C)CC(=O)N(C)[C@H]3C/C=C\CCN(C3=O)[C@@H](Cc3ccc(C(F)(F)F)cc3)C(=O)N(C)CC(=O)N[C@@H](CCc3cc(F)c(C(F)(F)F)c(F)c3)C(=O)N2C1 [PP1319]; 10.16
CC[C@H](C)[C@@H]1NC(=O)[C@H](CC)N(C)C(=O)C[C@@H](C(=O)N(C)C)N(C)C(=O)[C@H](C2CCCC2)N(C)C(=O)C2(CCCC2)NC(=O)[C@@H]2CCCN2C(=O)[C@H](CCc2cc(F)c(C(F)(F)F)c(F)c2)NC(=O)CN(C)C(=O)[C@H](Cc2ccc(C(F)(F)F)cc2)N2C[C@H](C)CC[C@@H](C2=O)N(C)C(=O)CN(C)C1=O [PP1382]; 10.17
CCO[C@@H]1C[C@H]2C(=O)NC3(CCCC3)C(=O)N(C)[C@@H](C(CC)CC)C(=O)N(C)[C@H](C(=O)N3CCCC3)CC(=O)N(C)[C@@H](COC)C(=O)N[C@@H]([C@@H](C)CC)C(=O)N(C)CC(=O)N(C)[C@H]3C/C=C\CCN(C3=O)[C@@H](CC3CCCCC3)C(=O)N(C)CC(=O)N[C@@H](CCc3cc(F)c(C(F)(F)F)c(F)c3)C(=O)N2C1 [PP1439]; 8.92

So for CCCOC[C@H]1C(=O)N[C@@H]([C@@H](C)CC)C(=O)N(C)CC(=O)N(C)[C@H]2C/C=C\CCN(C2=O)[C@@H](Cc2ccc(C)cc2)C(=O)N(C)CC(=O)N[C@@H](CCc2cc(F)c(C(F)(F)F)c(F)c2)C(=O)N2C[C@H](OCC)C[C@H]2C(=O)NC2(CC(C)(C)C2)C(=O)N(C)[C@@H](C2CCCC2)C(=O)N(C)[C@H](C(=O)N(C)C)CC(=O)N1C [PP1400] , the logged pKd turned out to be 10.31

So for CCO[C@@H]1C[C@H]2C(=O)NC3(CCCCC3)C(=O)N(C)[C@@H](C3CCCC3)C(=O)N(C)[C@H](C(=O)N(C)C)CC(=O)N(C)[C@@H](CC)C(=O)N[C@@H]([C@@H](C)CC)C(=O)N(C)CC(=O)N(C)[C@H]3C/C=C\CCN(C3=O)[C@@H](Cc3ccc(C(F)(F)F)cc3)C(=O)N(C)CC(=O)N[C@@H](CCc3cc(F)c(C(F)(F)F)c(F)c3)C(=O)N2C1 [PP1277] , the logged pKd turned out to be 9.60

So for CCC[C@H]1C(=O)N[C@@H]([C@@H](C)CC)C(=O)N(C)CC(=O)N(C)[C@H]2C/C=C\CCN(C2=O)[C@@H](Cc2ccc(C(F)(F)F)cc2)C(=O)N(C)CC(=O)N[C@@H](CCc2ccc(C(F)(F)F)c(OC)c2)C(=O)N2C[C@H](OCC)C[C@H]2C(=O)NC2(CC(C)(C)C2)C(=O)N(C)[C@@H](C2CCCC2)C(=O)N(C)[C@H](C(=O)N(C)C)CC(=O)N1C [PP1560] , the logged pKd turned out to be 10.16

So for CCO[C@@H]1C[C@H]2C(=O)NC3(CCC3)C(=O)N(C)[C@@H](C3CCCC3)C(=O)N(C)[C@H](C(=O)N(C)C)CC(=O)N(C)[C@@H](CC)C(=O)N[C@@H]([C@@H](C)CC)C(=O)N(C)CC(=O)N(C)[C@H]3C/C=C\CCN(C3=O)[C@@H](CC3CCC(F)(F)CC3)C(=O)N(C)CC(=O)N[C@@H](CCc3cc(F)c(C(F)(F)F)c(F)c3)C(=O)N2C1 [PP1452] , the logged pKd turned out to be 9.89

So for CC[C@H](C)[C@@H]1NC(=O)[C@H](CC)N(C)C(=O)C[C@@H](C(=O)N2CCOCC2)N(C)C(=O)[C@H](C2CCCC2)N(C)C(=O)C2(CCC2)NC(=O)[C@@H]2CCCN2C(=O)[C@H](CCc2cc(F)c(C(F)(F)F)c(F)c2)NC(=O)CN(C)C(=O)[C@H](Cc2ccc(C(F)(F)F)cc2)N2C[C@H](C)CC[C@@H](C2=O)N(C)C(=O)CN(C)C1=O [PP1384] , the logged pKd turned out to be 9.96

So for CCO[C@@H]1C[C@H]2C(=O)NC3(CCC3)C(=O)N(C)[C@@H](C3CCCC3)C(=O)N(C)[C@H](C(=O)N(C)C)CC(=O)N(C)[C@@H](CC3CC3)C(=O)N[C@@H]([C@@H](C)CC)C(=O)N(C)CC(=O)N(C)[C@H]3C/C=C\CCN(C3=O)[C@@H](Cc3ccc(F)cc3C)C(=O)N(C)CC(=O)N[C@@H](CCc3cc(F)c(Cl)c(F)c3)C(=O)N2C1 [PP1477] , the logged pKd turned out to be 8.85

So for CCO[C@@H]1C[C@H]2C(=O)NC3(CCC3)C(=O)N(C)[C@@H](C3CCCC3)C(=O)N(C)[C@H](C(=O)N(C)C)CC(=O)N(C)[C@@H](CC)C(=O)N[C@@H]([C@@H](C)CC)C(=O)N(C)CC(=O)N(C)[C@H]3C/C=C\CCN(C3=O)[C@@H](Cc3ccc(C(F)(F)F)cc3)C(=O)N(C)CC(=O)N[C@@H](CCc3ccc(C(F)(F)F)c(C)c3)C(=O)N2C1 [PP1265] , the logged pKd turned out to be 9.77

Source: patent US20240158446A1
